Data provenance: patent US9603829B2

- Tested on: SHSY-5Y cells
- assay_remarks: MTT growth inhibition assay in SHSY-5Y dopaminergic cells
- Assay type: cell-based, human
- run_parameters: Homo sapiens, SH-SY5Y, read-out: SHSY-5Y IC50
pIC50: −log10 of the molar value.
measured_metric: pIC50

(Q) Please report pIC50 for the following compound: COC1=C2C[C@@H](C)C[C@H](OC)[C@H](O)[C@@H](C)/C=C(\C)[C@H](OC(N)=O)[C@@H](OC)/C=C\C=C(/C)C(=O)NC(=C(C)C1=O)C2=O [19Me-GA]
(A) < 5.00

(Q) Please report pIC50 for the following compound: C=CCNC1=C2C[C@@H](C)C[C@H](OC)[C@H](O)[C@@H](C)/C=C(\C)[C@H](OC(N)=O)[C@@H](OC)/C=C\C=C(/C)C(=O)NC(=C(c3ccccc3)C1=O)C2=O [19Ph-17AAG]
(A) < 4.70

(Q) Please report pIC50 for the following compound: C=CCNC1=C2C[C@@H](C)C[C@H](OC)[C@H](O)[C@@H](C)/C=C(\C)[C@H](OC(N)=O)[C@@H](OC)/C=C\C=C(/C)C(=O)NC(=C(C)C1=O)C2=O [19Me-17AAG]
(A) < 4.70

(Q) Please report pIC50 for the following compound: COC1=C2C[C@@H](C)C[C@H](OC)[C@H](O)[C@@H](C)/C=C(\C)[C@H](OC(N)=O)[C@@H](OC)/C=C\C=C(/C)C(=O)NC(=C(c3ccccc3)C1=O)C2=O [19Ph-GA, 19-phenylgeldanamycin]
(A) < 5.00

---
(Q) Please report pIC50 for the following compound: CO[C@H]1/C=C\C=C(/C)C(=O)NC2=C(c3ccccc3)C(=O)C(NCCN(C)C)=C(C[C@@H](C)C[C@H](OC)[C@H](O)[C@@H](C)/C=C(\C)[C@@H]1OC(N)=O)C2=O [19Ph-DMAG]
(A) < 4.70
